For each record, write down the corresponding %Inh.
system: PAK6; conditions: concentration: 1 μM, replicates: in singlicate; n = 1;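 note: KINOMEscan kinase panel screen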
Answer with a number only, understood to be in %.

Reported %Inh for Nc1ncc(-c2ccc3nccc(-c4ccncc4)c3c2)cc1S(=O)(=O)N1CCOCC1 [GSK1627798] : what is it?
0

%Inh lookup needed for Clc1ccc(-c2nn3ncccc3c2-c2ccnc(Nc3ccc4c(c3)OCCO4)n2)cc1 [GW829116] , thanks.
2

Quick one: %Inh for Cl.NC(=O)c1cccc(Nc2nccc(Nc3ccc(Oc4c(Cl)cccc4Cl)c(Cl)c3)n2)c1 [GW659009] ?
0

Quick one: %Inh of COc1ccc(Nc2nccc(NCCNC(=O)c3cc4ccccc4s3)n2)cc1 [GSK1379896] ?
1

If you can, please state the reported %Inh value of Cc1ccc(C)c(NC(=O)NC2CCN(c3ccnc(Nc4ccc(F)cc4)n3)C2)c1 (centres unmarked) [GSK1379720] .
0

Recorded %Inh of O=C(Nc1cccc(-c2nn3ccccc3c2-c2ccnc(Nc3cccc(F)c3)n2)c1)c1c(F)ccc(F)c1Cl [GSK357952] , please.
0

# input compound: CC(C)(C)c1ccc2nccc(Nc3cccc(O)c3)c2c1 [GW856795] ; wanted: its %Inh
0

# lookup: %Inh of Cc1cccc(NC(=O)Nc2ccc(Oc3ncnc4ccn(C)c34)cc2)c1
0

// %Inh lookup, key: CCc1ccc(-c2ccc3c(c2)-c2c(cnn2C)S(=O)(=O)N3C)cc1
9

GET /values?readout=%Inh&item= CCS(=O)(=O)c1ccc(OC)c(Nc2nccc(-c3c(-c4cccc(NC(=O)c5c(F)cccc5F)c4)nn4ncccc34)n2)c1 [GSK326180]
11

Please give the measured %Inh for this compound: COCCOCCOc1cc2ncc3c4ccc(C#N)cc4[nH]c3c2cc1OC
10

Which %Inh value belongs to CNC(=O)c1ccccc1Nc1nc(Nc2ccc(N3CCOCC3)cc2)ncc1Cl.Cl [GSK1576028] ?
66

I'd like to know its %Inh. The compound in question is Cc1ccc(C(=O)N2CC[C@@H](O)C2)cc1-n1c(C)cc(OCc2ccc(F)cc2F)c(Br)c1=O
0

Any idea what %Inh was measured for Cl.Cl.NCC(NCc1ccc(-c2ccnc3[nH]ccc23)s1)c1ccccc1 (centres unmarked) [GSK1321565] ?
2

So what's the measured %Inh for this one? Cl.Cl.NCC(NC(=O)c1cc(-c2ccccc2)c(-c2ccnc3[nH]ccc23)s1)c1ccccc1 (centres unmarked) [GSK1321561]
12

Given the entry COC(=O)Nc1nc2ccc(Oc3ccc(NC(=O)Nc4cc(C(F)(F)F)ccc4F)cc3)cc2n1C.Cl [GW692089] , report its measured %Inh.
0

Looking for the measured %Inh of Nc1ncnc2c1nc(-c1ccccc1)n2-c1ccccc1 [SKF-97293] , can you help?
8

----------
Hi there, I'd appreciate the recorded %Inh for every entry that follows.
test system: AXL; conditions: concentration: 1 μM, replicates: in singlicate; n = 1

// query %Inh value for entry COc1ccc(Nc2nccc(N3CCC(NC(=O)Nc4cccc(OC)c4)C3)n2)cc1 (centres unmarked)
0%

Name the recorded %Inh for C[C@@H](Oc1cc(-n2cnc3cc(-c4ccnc(NCCS(C)(=O)=O)c4)ccc32)sc1C(N)=O)c1ccccc1Cl .
91%

Which %Inh value belongs to Cl.Cl.NCC(C(=O)Nc1cc(Br)c(-c2ccnc3[nH]ccc23)s1)c1ccccc1 (centres unmarked) ?
57%

Give its %Inh value. Item: COc1cc(Nc2nccc(N3CCC(NC(=O)Nc4cccc(C(C)=O)c4)C3)n2)cc(OC)c1OC (centres unmarked)
0%

Item under review: CN(C)S(=O)(=O)c1cc(-c2ccc3nccc(-c4cccc(S(N)(=O)=O)c4)c3c2)cnc1N . Reported %Inh?
10%

Given O=C(Nc1n[nH]c2cc(-c3ccoc3)ccc12)C1CC1 , state its recorded %Inh.
37%

For the compound Nc1n[nH]c2cnc(-c3ccccc3)cc12 , what %Inh is on record?
0%

Reported %Inh, compound Cl.NC(=O)c1cccc(Nc2nccc(Nc3ccc(Oc4c(Cl)cccc4Cl)c(Cl)c3)n2)c1 : ____
5%

Bench note: what %Inh did Oc1cc(Nc2ccnc3cc(I)ccc23)ccc1F show?
3%

// lookup %Inh for O=C(Nc1cccc(-c2nn3ccccc3c2-c2ccnc(Nc3cccc(C(F)(F)F)c3)n2)c1)c1c(F)cccc1F
12%

Fill in the blank: the reported %Inh of COCCOCCOc1cc2ncc3c4ccc(C#N)cc4[nH]c3c2cc1OC is ____.
44%

Which value of %Inh has been reported for NCCCC(NC(=O)c1cc(Br)c(-c2ccnc3[nH]ccc23)s1)c1ccccc1.O=C(O)C(F)(F)F.O=C(O)C(F)(F)F (centres unmarked) in the records?
74%

Give its %Inh value. Item: Clc1ccc(-c2nn3ncccc3c2-c2ccnc(Nc3ccc4c(c3)OCCO4)n2)cc1
0%

Give the measured %Inh of Cc1occc1-c1ncc(OC[C@@H](N)Cc2c[nH]c3ccccc23)cc1-c1ccc2[nH]nc(C)c2c1.O=C(O)C(F)(F)F .
35%

Can you share its %Inh? I mean this compound: CCc1ccc(-c2ccc3c(c2)-c2c(cnn2C)S(=O)(=O)N3C)cc1
8%

Can you share its %Inh? I mean this compound: CN1CCN(Cc2cccc(-c3ccc4c(Nc5ccc(Oc6ccccc6)cc5)ccnc4c3)c2)CC1
17%

Quick one: %Inh of FC(F)(F)c1ccc(/C=C/c2cncnc2Nc2ccc3[nH]c(Cc4ccccc4)nc3c2)cc1 ?
0%

----------
tested on: MST2; construct: gene STK3; conditions: concentration: 1 μM, replicates: in singlicate; n = 1
ENDPOINT_LABEL: %Inh (%)
Answer format: numeric, % implied, no suffix.

Look up %Inh for this compound: CN1CCN(CCCNc2nccc(-c3c(-c4ccc(F)cc4)nn4cc(C(F)(F)F)ccc34)n2)CC1
0

Suppose we examine the compound Oc1cc(Nc2ccnc3cc(I)ccc23)ccc1F ; what %Inh value has been reported?
0

Please give the measured %Inh for this compound: Cc1cccc(Nc2nc(N[C@H]3CCNC3)ncc2C(N)=O)c1.Cl
0

I have this compound here, O=C(Nc1cccc(-c2nn3ccccc3c2-c2ccnc(Nc3cccc(C(F)(F)F)c3)n2)c1)c1c(F)cccc1F , and I need its recorded %Inh.
0

Looking for the measured %Inh of Cc1ccc(S(=O)(=O)Nc2ccc(Nc3nccc(Nc4cccc5[nH]ncc45)n3)cc2)cc1 , can you help?
0

Looking for the measured %Inh of Nc1ncc(-c2ccc3nccc(-c4ccncc4)c3c2)cc1S(=O)(=O)N1CCOCC1 , can you help?
0

// %Inh lookup, key: FC(F)(F)c1ccc(/C=C/c2cncnc2Nc2ccc3[nH]c(Cc4ccccc4)nc3c2)cc1
0

Which measured %Inh value corresponds to Clc1ccc(-c2nn3ncccc3c2-c2ccnc(Nc3ccc4c(c3)OCCO4)n2)cc1 ?
9

Given CC(C)(C)c1ccc2nccc(Nc3cccc(O)c3)c2c1 , state its recorded %Inh.
18

Entry COc1cc(Nc2nccc(-c3c(-c4cccc(NC(=O)c5c(F)cccc5F)c4)nn4ccccc34)n2)cc(OC)c1OC : reported %Inh = ?
39

Param item = COCCOCCOc1cc2ncc3c4ccc(C#N)cc4[nH]c3c2cc1OC ; retrieve measured %Inh.
76

// returns reported %Inh for input Cl.Cl.NCC(NCc1ccc(-c2ccnc3[nH]ccc23)s1)c1ccccc1 (centres unmarked)
48

What value of %Inh has been reported for the following compound? Cc1ccc(C)c(NC(=O)NC2CCN(c3ccnc(Nc4ccc(F)cc4)n3)C2)c1 (centres unmarked)
0

Could you share which %Inh value was measured for C[C@@H]1CC[C@@H](C(=O)Nc2ccccc2)CN1c1cc(-c2ccc3c(N)n[nH]c3c2)nc(N)n1 ?
0

What %Inh value was documented for this compound, Cl.Cl.NCC(C(=O)Nc1cc(Br)c(-c2ccnc3[nH]ccc23)s1)c1ccccc1 (centres unmarked) ?
7

For the compound shown here, COc1cc(Nc2ncc3c(C)nc(-c4cc5ccccc5[nH]4)n3n2)cc(OC)c1OC , give the reported %Inh.
29

Given Cc1cccc(NC(=O)Nc2ccc(Oc3ncnc4ccn(C)c34)cc2)c1 , state its recorded %Inh.
0

----------
Assignment: determine reported %Inh for the given compounds.
test system: AMPK-alpha2; construct: gene PRKAA2; settings: concentration: 1 μM, replicates: in singlicate; n = 1

I am curious: what %Inh value has been reported for Fc1ccc(-c2ncn(C3CCNCC3)c2-c2ccnc(Oc3ccc(-c4ccccc4)cc3)n2)cc1 ?
20%

# %Inh lookup, item Cn1cc(-c2ccc3c(c2)CCN3C(=O)Cc2cccc(Cl)c2)c2c(N)ncnc21
20%

Suppose we examine the compound O=C(Nc1ccccc1F)NC1CCN(c2ccnc(Nc3ccc(F)cc3)n2)CC1 ; what %Inh value has been reported?
0%

Fill in the blank: the reported %Inh of CCCCc1nn2ncccc2c1-c1ccnc(Nc2ccc(N3CCN(C)CC3)cc2)n1 is ____.
9%

Quick one: %Inh of Cc1ccc(S(=O)(=O)Nc2ccc(Nc3nccc(Nc4cccc5[nH]ncc45)n3)cc2)cc1 ?
0%
